All values here come from ChEMBL document CHEMBL6115016.

- Test system: Severe acute respiratory syndrome coronavirus 2
- ASSAY COMMENT: Inhibition of 6His-tagged recombinant SARS CoV-2 MPro extracted from Escherichia coli BL21 (DE3) using Dabcyl-KNSTLQSGLRKE-Edans as substrate at 20 uM preincubated for 30 mins followed by substrate addition measured for 1 hr by FRET assay relative to control
- CONDITION INFO: time 90.0 min
MEASURE: inhibition (%)

| MOL SMILES | QUANTITATIVE READOUT |
| --- | --- |
| CC(=O)Nc1ccc(-c2cc(COC(=O)CCl)c3ccccc3n2)cc1 | 32 |
| CC(=O)Nc1ccc(-c2cc(COC(=O)CBr)c3ccc(Br)cc3n2)cc1 | 75 |
| C=CC(=O)NCc1cc(-c2ccc(NC(C)=O)cc2)nc2ccccc12 | 104 |
| C=CC(=O)OCc1cc(-c2ccc(CCC)cc2)nc2ccccc12 | -2 |
| COc1ccc2c(COC(=O)CBr)cc(-c3ccc(NC(C)=O)cc3)nc2c1 | 29 |
